- Tested on: HepG2-ACTB-RAB5A
- procedure_text: phenotypically active (imaging signature differs from DMSO and reproducible) at any of 0.3-9 uM (binary (1 = active, 0 = inactive)); higher = active
- test_context: treatment time: 24 h
Reported phenotypically active is given for each of the following compounds.
Just the number, please, no unit attached.

Example cases with answers are listed next.
COc1ccc(CN(CCN(C)C)c2ccccn2)cc1 = 0
COc1cc2c(NC3CCN(C(C)C)CC3)nc(C3CCCCC3)nc2cc1OCCCN1CCCC1 = 1
C[C@]12CC[C@@H]3c4ccc(OS(=O)(=O)O)cc4CC[C@H]3[C@@H]1CCC2=O = 0
O=C(Nc1cc(C(F)(F)F)cc(C(F)(F)F)c1)c1cnc(Cl)nc1C(F)(F)F = 0

// below: phenotypically active requested for another compound
Ask | Find the recorded phenotypically active belonging to `CCCCCCOc1cc2c(cc1N(C)c1ncc(C(=O)O)cn1)C(C)(C)CCC2(C)C` and report it.
Reply | 0
